Test system: NCI-H358 (K-Ras G12C)
Test: CellTiter-Glo cell viability assay, NCI-H358
Assay type: cell-based, human
Settings: Homo sapiens, NCI-H358, 120 h, NCI-H358, 5-day treatment; class symbols; read-out: Additional H358 Cell Viability assay data (K-Ras G12C, IC50)
Procedure: Note—The following protocol describes a procedure for monitoring cell viability of K-Ras mutant cancer cell lines in response to a compound of the invention. Other RAS isoforms may be employed, though the number of cells to be seeded will vary based on cell line used. Test compounds (132.5 nL) were directly dispensed into the assay plates containing cells. […] Luminescence was measured using the PerkinElmer Enspire. […]
measured_endpoint: IC50

Kindly indicate its recorded IC50. Item: CCn1c(-c2cccnc2[C@H](C)OC)c2c3cc(ccc31)-c1cc(O)cc(c1)C[C@H](NC(=O)[C@H](C(C)C)N(C)C(=O)c1ncc(NC(=O)/C=C/CN(C)C)n1C)C(=O)N1CCC[C@H](N1)C(=O)OCC(C)(C)C2
10 to 100 nM

Look up and report measured IC50 for this entry: C=CC(=O)N1CC[C@H](C(=O)N(C)[C@H](C(=O)NC2C[C@@H]3CN(CCO3)c3ccc4c(c3)c(c(-c3cccnc3[C@H](C)OC)n4CC)CC(C)(C)COC(=O)[C@@H]3CC(Br)CN(N3)C2=O)C(C)C)C1 (some centres unmarked)
> 1000 nM

Indicate its recorded IC50; the compound in question is CCn1c(-c2cccnc2[C@H](C)OC)c2c3cc(ccc31)-c1csc(n1)C[C@H](NC(=O)[C@H](C(C)C)N(C)C(=O)N1CCC3(CC1)CN(C(=O)/C=C/CN1CCOCC1)C3)C(=O)N1CCC[C@H](N1)C(=O)OCC(C)(C)C2 (atropisomer, axis not shown)
10 to 100 nM

Using known records, supply IC50 for C=CC(=O)N1CC[C@]2(CCN([C@H](C(=O)N[C@H]3Cc4cccc(c4)-c4ccc5c(c4)c(c(-c4cccnc4[C@H](C)OC)n5CC)CC(C)(C)COC(=O)[C@@H]4CCCN(N4)C3=O)C(C)C)C2=O)C1 (atropisomer, axis not shown)
10 to 100 nM

Using the record for CCn1c(-c2cccnc2[C@H](C)OC)c2c3cc(ccc31)-c1cc(O)cc(c1)C[C@H](NC(=O)[C@H](C(C)C)N(C)C(=O)[C@H]1CCN(C(=O)C#CCN(C)C)C1)C(=O)N1CCC[C@H](N1)C(=O)OCC(C)(C)C2 (atropisomer, axis not shown) , state its measured IC50.
< 10 nM

In one line, give reported IC50 of the entry CCn1c(-c2cccnc2[C@H](C)OC)c2c3cc(ccc31)-c1cccc(c1)C[C@H](NC(=O)[C@@H](CO[C@H]1CCN(C(=O)C#CC(C)(C)N(C)C)C1)C(C)C)C(=O)N1CCC[C@H](N1)C(=O)OCC(C)(C)C2 (atropisomer, axis not shown) .
< 10 nM

Note IC50 for the compound shown: C=CC(=O)N1C[C@@H](C)[C@H](C(=O)N(C)[C@H](C(=O)N[C@H]2Cc3cccc(c3)-c3ccc4c(c3)c(c(-c3cccnc3[C@H](C)OC)n4CC)CC(C)(C)COC(=O)[C@@H]3CCCN(N3)C2=O)C(C)C)C1 (atropisomer, axis not shown)
10 to 100 nM

Read off the recorded IC50 for C=CC(=O)N1CC[C@H](C(=O)N(C)[C@H](C(=O)N[C@H]2Cc3cc(O)cc(c3)-c3ccc4c(c3)c(c(-c3cnn5c3[C@@H](OC)CCC5)n4CC)CC(C)(C)COC(=O)[C@@H]3CCCN(N3)C2=O)C(C)C)C1
< 10 nM

Reference source for all entries: patent US11566007B2
